Target: DCAF1 WD40 domain (residues 1077-1390) (Homo sapiens, UniProt Q9Y4B6)
Construct: DCAF1 WD40 domain (residues 1077-1390)
Sequence (Q9Y4B6 1077-1390): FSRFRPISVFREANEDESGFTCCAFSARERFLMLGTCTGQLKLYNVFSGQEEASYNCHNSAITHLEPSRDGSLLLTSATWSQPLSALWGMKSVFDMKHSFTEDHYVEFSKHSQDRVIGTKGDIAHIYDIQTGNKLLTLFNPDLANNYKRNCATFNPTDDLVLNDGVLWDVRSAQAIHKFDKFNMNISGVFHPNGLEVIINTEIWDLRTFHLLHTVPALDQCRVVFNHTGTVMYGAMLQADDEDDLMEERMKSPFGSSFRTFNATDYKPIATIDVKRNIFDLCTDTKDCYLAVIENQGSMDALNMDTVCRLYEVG
Assay: DCAF1 binding assay by SPR (Biacore 8K+), DCAF1-3 KD
Conditions: 25 °C, read-out: DCAF1-3 SPR (KD)
pKd: −log10 of the molar value.
result_type: pKd

Worked examples follow.
pKd for NC(=O)C[C@@](NC(=O)c1c[nH]nc1-c1ccccc1F)(C(=O)O)c1cccc(Cl)c1 ?
< 3.70

Also check Clc1nc2c(c(N3CCC[C@@H](Nc4cc(N5CCOCC5)ccn4)C3)n1)CCNC2
4.00 to 5.00

---
pKd for c1cc2cc(N3CCC[C@@H](Nc4nccc(N5CCOCC5)n4)C3)ccc2cn1 ?
< 3.70
